Record set of pIC50 for target or system ROCK2 (Homo sapiens (Human)).
API: returns pIC50 as number; meaning -log10 of concentration in mol/L.

The following compounds have reported results that may help.
COMPOUND	pIC50
Cn1ncc2cc(C(N)=O)c(O[C@H]3C[C@@]4(C[C@H](NC(=O)c5nnc(-c6cccc(S(C)(=O)=O)c6)s5)C4)C3)nc21 (stereo partly shown)	8.37
CC(C)(O)COc1ccc2c(C(=O)NC3CC4(C3)CC(Oc3nc5c(cc3C(N)=O)COCC5)C4)cnn2c1 (stereo not shown)	7.40
Cc1c(C(=O)N[C@H]2C[C@]3(C2)C[C@H](Oc2nn(C(F)F)cc2C(N)=O)C3)cnn1-c1ccc(Cl)cc1 (stereo partly shown)	7.11

Please look at the following compound next.
Note to self: pIC50 of Cc1nc(O[C@H]2C[C@@]3(C[C@H](NC(=O)c4cnn5cc(OCC(C)(C)O)ccc45)C3)C2)c(C(N)=O)s1 (stereo partly shown) with ROCK2 (Homo sapiens (Human)) was 7.72
